Reference for the values: patent US20230349919A1

Reported REGN560.L15_ab_raw values are given for each entry in this list.
biological target: T1, human IL-4Rα (hIL-4Rα) monomeric protein (human, UniProt P24394 26-232, limits assumed); test: barcoded-antigen count on source cell (scRNA-seq)
T1 construct: also called hIL-4Rα antigen; barcoded hIL-4Rα
Report as a plain number; the unit counts is understood.

binder	recorded-number
Table 1 Line # 34 antibody (SP_B_cell) (antibody, human IgG4, V domains shown, Cloned with human IgG4/human Igk constants for Kd; barcode counts are of the source cell's own IgG) VH: EVQLVASGGDLVQPGRSLRLSCAASGFTFDDFGMHWVRQAPGKGLEWVSGISWNGGHMGYAASVKGRFTMSRDNAKNSLYLQMNSLRVEDTALYYCVKEFSSSWYGFFDLWGRGTLVTVSS VL: DIQMTQSPSSLSASVGDRVTITCRASQGLGNSVAWYQQKPGQIPRLLISAAASLQSGVPSRFSGSGSGTDFTLTISSLQPEDVATYYCQNYNSAPRTFGQGTNVEIK	6890
Table 1 Line # 12 antibody (BM_Plasma_cell) (antibody, human IgG4, V domains shown, Cloned with human IgG4/human Igk constants for Kd; barcode counts are of the source cell's own IgG) VH: QVQLVESGGGVVQPGRSLRLSCAASGFTFSSYGMHWVRQAPGKGLEWVSVISYDGSNKYYADSVKGRFTISRDNSKNTLFLQVNSLRAEDTAVYYCAKEGRTGFDYWGQGTLVTVSS VL: DIQMTQSPSSLSASVGDRVTITCRARQGISNYLAWFQQKPGKVPKLLIYAASTLQSGVPSRFSGSGSGTDFTLTISSLQPEDVATYYCQKYNSAPWTFGQGTKVEIK	3180
Table 1 Line # 53 antibody (SP_Plasma_cell) (antibody, human IgG4, V domains shown, Cloned with human IgG4/human Igk constants for Kd; barcode counts are of the source cell's own IgG) VH: EIQLVESGGGLVQPGRSLRLSCAASGFTFDDYAMHWVRQAPGKGLEWVSGINWNNGSLGYADSVKGRFTISRDNAKNSLYLQMNSLRTEDTALYYCVKDTGSWASYYGMDVWGHGTTVTVSS VL: DIQMTQSPSSLSASIGDRVTITCRASQGIRNDLGWYQQKPGKAPKRLIYAASSLQSGVPSRFSGSGSGTEFTLTISSLQPEDFATYYCLQHNSYPYTFGQGTKLEIK	818
Table 1 Line # 29 antibody (SP_B_cell) (antibody, V domains shown) VH: EVQLLESGGGLVQPGGSLRLSCAASGFTFSSYAMSWVRQAPGKGLEWVSAISGSGGSTYYADSVKGRFTISRDNSKNTLYLQMNSLRAEDTAIYYCARYGNWNYIWGQGTLVTVSS VL: DIQMTQSPSSVSASVGDRVTITCRASQGISSWLAWYQQKPGKAPKLLIYAASSLQSGVPSRFSGSGSGTDFTLTISSLQPEDFATYYCQQANSFPLTFGGGTKVEIK	9190

What does the data say about its REGN560.L15_ab_raw? Entry: Table 1 Line # 54 antibody (SP_Plasma_cell) (antibody, human IgG4, V domains shown, Cloned with human IgG4/human Igk constants for Kd; barcode counts are of the source cell's own IgG) VH: QVQLVQSGAEVKKPGASVKVSCKASGYTFTNYGISWVRQAPGQGLEWMGWISVYNGNTNYAQKLQGRVTMTTDTSTSTAYMEVRSLRSDDTAVYYCARGVNWNYVFDYWGQGTLVTVSS VL: DIQMTQSPSSLSASVGDRVTITCRASQGIRNDLGWYQQKPGKAPKRLIYVVSSLQSGVPSRFSGSGSGTEFTLTISSLQPEDFATYYCLQHNSYPWTFGQGTKVEIK
815

What does the data say about its REGN560.L15_ab_raw? Entry: Table 1 Line # 21 antibody (SP_B_cell) (antibody, human IgG4, V domains shown, Cloned with human IgG4/human Igk constants for Kd; barcode counts are of the source cell's own IgG) VH: EVQLVESGGGVVRPGGSLRLSCAASGFTFDDYGMSWVRQAPGKGLEWVSGINWNGGSTGYADSVKGRFTMSRDNAKKSLYLQMNSLRAEDTAFYHCARDDSSSLYGYFQHWGQGTLVTVSS VL: DIQMTQSPSSLSASVGDRVTITCRASQGISIYLAWYQQKPGKVPKLLIYAASTLQSGVPSRFSGSGSGTDFTLTISSLQPEDVATYYCQNYNSAPRTFGQGTKVEIK
17400

What does the data say about its REGN560.L15_ab_raw? Entry: Table 1 Line # 7 antibody (BM_Plasma_cell) (antibody, human IgG4, V domains shown, Cloned with human IgG4/human Igk constants for Kd; barcode counts are of the source cell's own IgG) VH: EVQLVESGGGLVQPGRSLRLSCAASGFTFDDYAMHWVRQAPGKGLEWVSGISWNGASIGYADSLKGRFTISRDNAKNSLYLQMNSLRSEDTALFYCARDYSSAWYGYFDYWGQGTLVTVSS VL: DIQMTQSPSSLSASVGDRVTITCRASQDISNYLAWYQQKPGKVPKLLIYAASTLQSGVPSRFSGSGSGTDFTLTISSLQPEDVATYYCQNYNSVPRTFGQGTKVEIK
4140
